- Test system: UACC-257 melanoma
- Measurement Notes: NCI tumour cell line growth inhibition, 48 h
Observed Property: TGI

COC1=CC(c2ccc[nH]2)=N/C1=C\c1[nH]c(C)c(CC(=O)NCc2ccccc2)c1C = 3.17 µM
CCOc1cc2c(cc1O)C=C[C@@H]1[C@@H]2CC[C@]2(C)[C@@H](O)CC[C@@H]12 = > 100 µM
Nc1ccc(C(=O)CC2(O)C(=O)Nc3ccccc32)cc1 (centres undefined) = > 100 µM
Cn1cc(-c2ncnc3ccc(-c4cnc(Cl)c(NS(C)(=O)=O)c4)cc23)c2ccccc21 = 7.05 µM

For every item in the list below, what is its measured TGI?
1. COC(Cc1cc(C(O)(c2ccc(C(C)(C)C)cc2)c2cc(CC(OC)(c3cc(C(OC)(c4ccc(C(C)(C)C)cc4)c4ccc(C(C)(C)C)cc4)c(C)cc3C)c3cc(C(OC)(c4ccc(C(C)(C)C)cc4)c4ccc(C(C)(C)C)cc4)c(C)cc3C)c(C)cc2C)c(C)cc1C)(c1cc(C(OC)(c2ccc(C(C)(C)C)cc2)c2ccc(C(C)(C)C)cc2)c(C)cc1C)c1cc(C(OC)(c2ccc(C(C)(C)C)cc2)c2ccc(C(C)(C)C)cc2)c(C)cc1C
2. CCOC(=O)C1=NN(c2ccc(C)cc2)C2(c3ccccc3)C=C(c3ccccc3)N(C)CCN12 (centres undefined)
3. Cc1ccc(N2C=Nn3c(nc4sc5c(c4c3=O)CCCC5)C2)cc1
4. O=C1C=CC(=O)c2c(O)c(NCCN3CCOCC3)c(Cl)c(O)c21
5. Cc1ccccc1SC(/C=C/NNC1=NC(c2ccccc2)C(c2ccccc2)=NN1)c1ccccc1 (centres undefined)
6. O=C(NC1CCCCC1)NC12CC3CC(CC(F)(C3)C1)C2
7. C=CC(=C)CCC(Br)C(C)(C)Br (centres undefined)
8. NC(CCl)=NCC12CC3CC(CC(C3)C1)C2

1. > 75 µM
2. > 100 µM
3. > 100 µM
4. 4.56 µM
5. > 100 µM
6. > 100 µM
7. > 100 µM
8. 5.27 µM

# map each compound to its TGI
1. COc1ccc(NC(=O)c2ccc(C(F)(F)F)nc2Nc2ccc(Cl)cc2C)cc1Cl
2. NC(=O)c1ccc(I)c([N+](=O)[O-])c1
3. COc1nc(NC2OC(COC(C)=O)C(OC(C)=O)C(OC(C)=O)C2OC(C)=O)c(N=C(C)C(C)=O)c(=O)n1C (centres undefined)
4. COc1ccc(CC2Cc3ccccc3CC(=O)N2)cc1OC (centres undefined)

1. 24 µM
2. > 100 µM
3. > 100 µM
4. > 100 µM

For each listed entry, give its TGI.
1. Oc1cccc2ccc(SSc3ccc4cccc(O)c4n3)nc12
2. C/C=C(\C)C(=O)OC1C2C(C)=CC(=O)C(O)C2(C)C2C3(O)OCC24C1OC(=O)C(OC(C)=O)C4C(C)C3O (centres undefined)
3. CCN(CC)CCOCCOCC1(c2ccc(Cl)c(Cl)c2)CCCCC1
4. C/C(COc1ccc2oc(-c3ccccc3)cc(=O)c2c1)=N\O
5. CC1CCCc2c1n[nH]c2CC1CC(=O)NC(=O)C1 (centres undefined)
6. O=c1oc2ccc(F)cc2c(=O)n1-c1ccc(I)cc1F
7. COc1cccc(C2SC(C)C(=O)N2NC(=O)C(O)c2ccccc2)c1 (centres undefined)

1: 43.2 µM; 2: 0.0496 µM; 3: 9.57 µM; 4: > 100 µM; 5: > 100 µM; 6: 4.79 µM; 7: > 100 µM

Give TGI for each of the items listed below.
1. COc1cc(/C=C2\N=C(c3ccccc3)N(c3nc4ccccc4s3)C2=O)cc(OC)c1OC
2. C[C@@H](c1ccccc1)N1C[C@@H](c2ccc3c(c2)OCO3)[C@@H]2C(=O)CCC[C@@H]21
3. Cc1cccc2c(=O)c3c(sc12)c(NCCCN)nc1ccccc13
4. CC(=O)OC1CC2C(C)(C)C(=O)C=C[C@]2(C)C2CCC3(C)C(c4ccoc4)C(=O)C4OC43[C@]12C (some centres undefined)
5. COc1ccc2c(c1)C(=O)/C(=C/c1ccc(O)cc1)O2
6. CN1CCN(c2ccncc2S(=O)(=O)N2CCN(C)CC2)CC1
7. O=C(O)C(Cc1ccccc1)N=Cc1nc(-c2ccccc2)oc1O (centres undefined)
8. O=[N+]([O-])c1cc(I)cc(/C=N/NS(=O)(=O)c2ccc(F)cc2)c1O

["> 100 µM", "> 100 µM", "3.46 µM", "35.1 µM", "35.2 µM", "> 100 µM", "> 100 µM", "62.3 µM"]
